Experiment: in vitro
Assay type: in vitro ADME
Settings: rat, microsomes
READOUT TYPE: fraction unbound at 5 h

Query: For the molecule CC(C)(C)[C@H](NC(=O)[C@H](CC1CCCC1)CN(O)C=O)C(=O)N1CCC(NCc2cc(F)c(F)cc2F)CC1 [IDP-73152] , what fraction unbound at 5 h is on record?
Response: 0.439

* * *

Assay: PK study in rats (intravenous and oral)
Format: in vivo, Male Sprague Dawley rats
Conditions: male, Sprague Dawley, rat, plasma, intravenous 10 mg/kg, read-out: t1/2 (converted)
READOUT TYPE: half-life (h)
Provide the reading as a plain figure in h.

Query: For the compound CC(C)(C)[C@H](NC(=O)[C@H](CC1CCCC1)CN(O)C=O)C(=O)N1CCC(NCc2cc(F)c(F)cc2F)CC1 [IDP-73152] , what half-life is on record?
Response: 1.43

* * *

Test: Tissue distribution at steady state, constant-rate infusion in rats
Format: in vivo
Conditions: Sprague Dawley, rat, intravenous, 0.8 mg/h, spleen, 10 h infusion, read-out: KP,ss
READOUT TYPE: Kp at 10 h
No unit in the answer, please; the number alone is enough.

Query: For the molecule CC(C)(C)[C@H](NC(=O)[C@H](CC1CCCC1)CN(O)C=O)C(=O)N1CCC(NCc2cc(F)c(F)cc2F)CC1 , what Kp at 10 h is on record?
Response: 4.82

* * *

Assay: Metabolic stability in liver microsomes, human
Type: in vitro ADME
Conditions: human, liver microsomes, pH 7.4; humans, from microsomal stability data, well-stirred liver model; read-out: CLp expected in humans (converted)
READOUT TYPE: CLhep predicted at 1 μM

Query: For the compound CC(C)(C)[C@H](NC(=O)[C@H](CC1CCCC1)CN(O)C=O)C(=O)N1CCC(NCc2cc(F)c(F)cc2F)CC1 [IDP-73152] , what CLhep predicted at 1 μM is on record?
Response: ~3.17 mL/min/kg

* * *

Assay: Blood partitioning (LC-MS/MS-based depletion method), mouse
Assay type: in vitro ADME
Conditions: whole blood, mice blood, 0.3, 1, 3 μM, read-out: BP (blood-to-plasma concentration ratio)
READOUT TYPE: blood plasma ratio at 60 min
No unit in the answer, please; the number alone is enough.

Query: For the molecule CC(C)(C)[C@H](NC(=O)[C@H](CC1CCCC1)CN(O)C=O)C(=O)N1CCC(NCc2cc(F)c(F)cc2F)CC1 , what blood plasma ratio at 60 min is on record?
Response: 1.31

* * *

Test: Metabolic stability in rat hepatocytes
Format: in vitro ADME
Details: freshly isolated hepatocytes in suspension, pH 7.4; rat hepatocytes 0.5 × 10^6 cells/mL, 1 μM; read-out: CL,int,hep
READOUT TYPE: hepatocyte CLint at 1 μM
Remember to quote the unit after the number.

Query: For the compound CC(C)(C)[C@H](NC(=O)[C@H](CC1CCCC1)CN(O)C=O)C(=O)N1CCC(NCc2cc(F)c(F)cc2F)CC1 [IDP-73152] , what hepatocyte CLint at 1 μM is on record?
Response: 27.7 µL/min/1e6 cells

* * *

Experiment: PK study in dogs (intravenous and oral)
Assay type: in vivo
Conditions: male, beagle, dog, plasma, iv, 10 mg/kg, dogs, intravenous 10 mg/kg; read-out: CLp (converted)
READOUT TYPE: clearance (mL/min/kg)
Provide the reading as a plain figure in mL/min/kg.

Query: For the compound CC(C)(C)[C@H](NC(=O)[C@H](CC1CCCC1)CN(O)C=O)C(=O)N1CCC(NCc2cc(F)c(F)cc2F)CC1 , what clearance is on record?
Response: 10.3

* * *

Assay: Tissue distribution at steady state, constant-rate infusion in rats
Assay type: in vivo
Settings: Sprague Dawley, rat, intravenous, 0.8 mg/h, lung, 10 h infusion, read-out: KP,ss
READOUT TYPE: Kp at 10 h
No unit in the answer, please; the number alone is enough.

Query: For the molecule CC(C)(C)[C@H](NC(=O)[C@H](CC1CCCC1)CN(O)C=O)C(=O)N1CCC(NCc2cc(F)c(F)cc2F)CC1 [IDP-73152] , what Kp at 10 h is on record?
Response: 7.13

* * *

Experiment: Tissue distribution at steady state, constant-rate infusion in rats
Type: in vivo
Conditions: male, Sprague Dawley, rat, plasma, intravenous infusion 0.8 mg/h, 8 h, read-out: plasma concentration during infusion
READOUT TYPE: concentration at 8 h (ng/mL)
Provide the reading as a plain figure in ng/mL.

Query: For the molecule CC(C)(C)[C@H](NC(=O)[C@H](CC1CCCC1)CN(O)C=O)C(=O)N1CCC(NCc2cc(F)c(F)cc2F)CC1 , what concentration at 8 h is on record?
Response: 2070

* * *

Assay: PK study in dogs (intravenous and oral)
Format: in vivo
Conditions: male, beagle, dog, plasma; dogs, oral 20 mg/kg, hard gelatin capsules; read-out: t1/2 (terminal phase half-life) (converted)
READOUT TYPE: half-life
Remember to quote the unit after the number.

Query: For the compound CC(C)(C)[C@H](NC(=O)[C@H](CC1CCCC1)CN(O)C=O)C(=O)N1CCC(NCc2cc(F)c(F)cc2F)CC1 [IDP-73152] , what half-life is on record?
Response: 1.81 h

* * *

Test: Metabolic stability in liver microsomes, human
Type: in vitro ADME
Settings: human, microsomes, pH 7.4
READOUT TYPE: microsomal CLint at 1 μM (µL/min/mg)
Provide the reading as a plain figure in µL/min/mg.

Query: For the compound CC(C)(C)[C@H](NC(=O)[C@H](CC1CCCC1)CN(O)C=O)C(=O)N1CCC(NCc2cc(F)c(F)cc2F)CC1 [IDP-73152] , what microsomal CLint at 1 μM is on record?
Response: 31.8

* * *

Experiment: PK study in rats (intravenous and oral)
Format: in vivo, Male Sprague Dawley rats
Settings: male, Sprague Dawley, rat, plasma, oral 20 mg/kg vs intravenous 10 mg/kg, read-out: F (bioavailability)
READOUT TYPE: bioavailability (%)
Provide the reading as a plain figure in %.

Query: For the compound CC(C)(C)[C@H](NC(=O)[C@H](CC1CCCC1)CN(O)C=O)C(=O)N1CCC(NCc2cc(F)c(F)cc2F)CC1 [IDP-73152] , what bioavailability is on record?
Response: 55.3

* * *

Assay: Blood partitioning (LC-MS/MS-based depletion method), dog
Format: in vitro ADME
Settings: whole blood, dogs blood, 0.3, 1, 3 μM, read-out: BP (blood-to-plasma concentration ratio)
READOUT TYPE: blood plasma ratio at 60 min
No unit in the answer, please; the number alone is enough.

Query: For the molecule CC(C)(C)[C@H](NC(=O)[C@H](CC1CCCC1)CN(O)C=O)C(=O)N1CCC(NCc2cc(F)c(F)cc2F)CC1 [IDP-73152] , what blood plasma ratio at 60 min is on record?
Response: 1.45

* * *

Assay: PK study in rats (intravenous and oral)
Type: in vivo, Male Sprague Dawley rats
Conditions: male, Sprague Dawley, rat, plasma, iv, 10 mg/kg, intravenous 10 mg/kg, moment analysis, read-out: Vss
READOUT TYPE: Vd (L/kg)
Provide the reading as a plain figure in L/kg.

Query: For the compound CC(C)(C)[C@H](NC(=O)[C@H](CC1CCCC1)CN(O)C=O)C(=O)N1CCC(NCc2cc(F)c(F)cc2F)CC1 , what Vd is on record?
Response: 2.54

* * *

Test: Metabolic stability in liver microsomes, rat
Format: in vitro ADME
Details: rat, pH 7.4; rats liver microsomes 0.5 mg/mL, 1 μM; read-out: CLint,mic
READOUT TYPE: microsomal CLint at 1 μM (µL/min/mg)
Provide the reading as a plain figure in µL/min/mg.

Query: For the compound CC(C)(C)[C@H](NC(=O)[C@H](CC1CCCC1)CN(O)C=O)C(=O)N1CCC(NCc2cc(F)c(F)cc2F)CC1 , what microsomal CLint at 1 μM is on record?
Response: 72

* * *

Experiment: Tissue distribution at steady state, constant-rate infusion in rats
Format: in vivo
Settings: Sprague Dawley, rat, intravenous, 0.8 mg/h, kidney, 10 h infusion, read-out: KP,ss
READOUT TYPE: Kp at 10 h
No unit in the answer, please; the number alone is enough.

Query: For the compound CC(C)(C)[C@H](NC(=O)[C@H](CC1CCCC1)CN(O)C=O)C(=O)N1CCC(NCc2cc(F)c(F)cc2F)CC1 , what Kp at 10 h is on record?
Response: 8.68

* * *

Test: PK study in mice (intravenous and oral)
Type: in vivo, male ICR mice
Settings: male, ICR, mouse, plasma, intravenous 10 mg/kg, representative concentration–time profile, read-out: CLp (converted)
READOUT TYPE: clearance (mL/min/kg)
Provide the reading as a plain figure in mL/min/kg.

Query: For the compound CC(C)(C)[C@H](NC(=O)[C@H](CC1CCCC1)CN(O)C=O)C(=O)N1CCC(NCc2cc(F)c(F)cc2F)CC1 [IDP-73152] , what clearance is on record?
Response: 25.3
